// provenance: PubChem BioAssay (NCI)

# Assay method text: NCI Yeast Anticancer Drug Screen. Data for the bub3 strain (AID 167)
# Assay context: S. cerevisiae bub3 mutant strain, at 50.0 µM (retest, dose inferred, filed as 5.0), stronger effect = higher value
About 79,000 compounds went through this panel and 15% of them were active in at least one assay; those are over-represented in the sample as a whole.

- Compound: "CC(C)=CC1C(COC(=O)CCl)C1(C)C (stereo not drawn)"
  Readout units: "%"
  growth inhibition: -5
- Compound: "Clc1ccc(/C=N\\Nc2c3ccccc3nc3ccccc23)cc1Cl"
  Readout units: "%"
  growth inhibition: 44
- Compound: "Cc1cc(Br)cc(C)c1NC(=O)C(=O)C(C(=O)c1ccc2ccccc2c1)C1OC(=O)c2ccccc21 (stereo not drawn)"
  Readout units: "%"
  growth inhibition: 23
- Compound: "NCc1ccccc1-c1c2nc(c(-c3ccccc3CN)c3ccc([nH]3)c(-c3ccccc3CN)c3nc(c(-c4ccccc4CN)c4ccc1[nH]4)C=C3)C=C2"
  Readout units: "%"
  growth inhibition: 90
- Compound: "COc1ccc(OC)c(C[P+](c2ccccc2)(c2ccccc2)c2ccccc2)c1"
  Readout units: "%"
  growth inhibition: 99
- Compound: "Cc1ccc(N=Nc2sc(N)nc2C)cc1C"
  Readout units: "%"
  growth inhibition: -12
- Compound: "COc1ccc2nc(NC(=O)Nc3c(Cl)cccc3Cl)sc2c1"
  Readout units: "%"
  growth inhibition: 99
- Compound: "Cc1ccc2c(c1)C1(SC(C)C(=O)N1c1ccc(Cl)cc1)C(=O)N2CN1CCOCC1 (stereo not drawn)"
  Readout units: "%"
  growth inhibition: 97
- Compound: "C[C@H]1CC[C@@H]2[C@@H](C)[C@H]3[C@H](C[C@H]4[C@@H]5CC=C6C[C@@H](O)CC[C@]6(C)[C@H]5C[C@H](O)[C@]34C)N2C1"
  Readout units: "%"
  growth inhibition: -6
- Compound: "CN(CCC(=O)/C(=C\\c1ccc(Cl)cc1)c1ccccc1)Cc1ccccc1"
  Readout units: "%"
  growth inhibition: 99
- Compound: "CCCCN(c1ccccc1)c1ncnc2c1ncn2C"
  Readout units: "%"
  growth inhibition: 88
- Compound: "O=Cc1cc2ccccc2cc1C=O"
  Readout units: "%"
  growth inhibition: 96
- Compound: "CC(=O)O[C@@H]1c2c(c3c(=O)c4cccc(O)c4c(=O)c=3c2=[N+]=[N-])[C@H](OC(C)=O)[C@@H](OC(C)=O)[C@]1(C)O"
  Readout units: "%"
  growth inhibition: 99
- Compound: "CC(=O)CCC(Br)(CCC(Br)(CCC(C)=O)[N+](=O)[O-])[N+](=O)[O-] (stereo not drawn)"
  Readout units: "%"
  growth inhibition: 28
- Compound: "Oc1ccc2c(c1)Cc1ccccc1-2"
  Readout units: "%"
  growth inhibition: 82
- Compound: "Cc1nc(Cl)c(C#N)c(C)c1[N+](=O)[O-]"
  Readout units: "%"
  growth inhibition: 83
- Compound: "CCCCN(CCCC)CCCCCCNc1cc(OC)cc2cccnc12"
  Readout units: "%"
  growth inhibition: 30
- Compound: "O=[N+]([O-])c1cccc(C=Nc2ccccc2O)c1"
  Readout units: "%"
  growth inhibition: 82
- Compound: "CC(C)n1nnc2c3ccccc3c3ccccc3c21"
  Readout units: "%"
  growth inhibition: 12
- Compound: "COC(=O)C(=O)C(/C=N/C(=S)NCCc1ccc(OC)c(OC)c1)=C(/O)c1ccc([N+](=O)[O-])cc1"
  Readout units: "%"
  growth inhibition: -13
- Compound: "C=C1C(=O)OC2/C=C(\\C(=O)O)CC/C=C(\\C)CC(OC(=O)/C=C(\\C)CC)C12 (stereo not drawn)"
  Readout units: "%"
  growth inhibition: 84
- Compound: "O=[N+]([O-])/C(C=Nc1ccccc1)=C/Nc1ccccc1"
  Readout units: "%"
  growth inhibition: 73
- Compound: "CCC[CH2][Ge]([CH2]CCC)([CH2]CCC)[O]C(=O)CC(=O)c1ccccc1"
  Readout units: "%"
  growth inhibition: 27
- Compound: "COC(=O)C1C(c2ccccc2)=N[C@@H](c2ccccc2)[C@H]1C(=O)OC (stereo partly drawn)"
  Readout units: "%"
  growth inhibition: 32
- Compound: "CCC[CH2][Sn]([CH2]CCC)([O]N(C)C(=O)c1ccc(Br)cc1)[O]N(C)C(=O)c1ccc(Br)cc1"
  Readout units: "%"
  growth inhibition: 97
- Compound: "CCOC(=O)C(=Cc1cccnc1C)C(=O)OCC"
  Readout units: "%"
  growth inhibition: -14
- Compound: "Cn1c(Sc2ccc(-c3cccnc3)n2C)ccc1-c1cccnc1"
  Readout units: "%"
  growth inhibition: 96
- Compound: "Cc1ccc(SCC#CC#CCS(=O)c2ccc(C)cc2)cc1 (stereo not drawn)"
  Readout units: "%"
  growth inhibition: 98
- Compound: "COc1cccc(C2Nc3ccccc3C(=O)N2N2CCOCC2)c1 (stereo not drawn)"
  Readout units: "%"
  growth inhibition: -5
- Compound: "CN(C)c1ccc(C2CC(C)(N3CCCC3)Oc3cc4c(cc32)OCO4)cc1 (stereo not drawn)"
  Readout units: "%"
  growth inhibition: 84
- Compound: "O=C1C(c2c[nH]c3ccccc23)=Nc2ccc(Br)cc21"
  Readout units: "%"
  growth inhibition: 53
- Compound: "O=C(c1ccccc1)N1CCN(c2cccc(Cl)c2)CC1"
  Readout units: "%"
  growth inhibition: 93
- Compound: "Nc1ncnc2c1c(-c1ccccc1)cn2-c1ccc(I)cc1"
  Readout units: "%"
  growth inhibition: 0
- Compound: "CC1=C(C(=O)NCc2ccccc2)C(c2ccccc2[N+](=O)[O-])C(C(=O)NCc2ccccc2)=C(C)N1"
  Readout units: "%"
  growth inhibition: 15
- Compound: "O=C(O)CCC(c1ccccc1)(c1ccccc1)c1ccccc1"
  Readout units: "%"
  growth inhibition: -50
- Compound: "c1ccc2c(c1)OCC(CN1CCN(CC3COc4ccccc4O3)CC1)O2 (stereo not drawn)"
  Readout units: "%"
  growth inhibition: 60
- Compound: "CN(C)N=Nc1ccc(NC(N)=O)cc1"
  Readout units: "%"
  growth inhibition: 50
- Compound: "c1ccc2c(c1)oc1cc3ccncc3cc12"
  Readout units: "%"
  growth inhibition: 94
- Compound: "O=C1C=CC(=O)C(c2ccc(Cl)cc2)=C1"
  Readout units: "%"
  growth inhibition: 97
- Compound: "O=C(CCC1OCCO1)Nc1cc(NCc2ccccc2)ccc1OCc1ccccc1"
  Readout units: "%"
  growth inhibition: 39
- Compound: "C(=N\\N=C\\c1ccc2c(c1)OCO2)/c1ccc2c(c1)OCO2"
  Readout units: "%"
  growth inhibition: 1
- Compound: "C#CCCCCCOC(=O)c1cc([N+](=O)[O-])cc([N+](=O)[O-])c1"
  Readout units: "%"
  growth inhibition: 99
- Compound: "Cc1cccc2c1NC(c1c(C)[nH]c3ccccc13)C2 (stereo not drawn)"
  Readout units: "%"
  growth inhibition: 17

* * *

# Assay method text: NCI Yeast Anticancer Drug Screen. Data for the mec2-1 strain (AID 157)
# Assay context: S. cerevisiae mec2-1 strain, at 5.0 µM (retest, dose inferred, filed as 0.5), stronger effect = higher value
The panel holds about 79,000 compounds, 15% with a hit somewhere; the sample as a whole holds those more often.
# cutoff 20% applies to growth inhibition; >= gives true (1), < gives false (0)

- Compound: "CC(C)N(C(=O)CC1(O)CCCCC1)C(C)C"
  Label: "false (0)"
- Compound: "CCCCCCCCCCCCCCN1CCSCC1"
  Label: "false (0)"
- Compound: "CCCCC(O)(c1ccccc1)C(O)(c1ccccc1)c1c(F)c(F)c(F)c(F)c1F (configuration not stated)"
  Label: "false (0)"
- Compound: "COC(=O)n1c(C[P+](c2ccccc2)(c2ccccc2)c2ccccc2)cc2ccccc21"
  Label: "true (1)"
- Compound: "Cc1ccc(SCC#CC#CCS(=O)c2ccc(C)cc2)cc1 (configuration not stated)"
  Label: "true (1)"
- Compound: "CCC#CC(O)(C(=O)OCC)C1CCCC1 (configuration not stated)"
  Label: "false (0)"
- Compound: "CSC(C=P(c1ccccc1)(c1ccccc1)c1ccccc1)=Nc1ccccc1"
  Label: "true (1)"
- Compound: "CCOC(=O)c1ccc(O)c(C=O)c1"
  Label: "false (0)"
- Compound: "Cc1ccccc1-n1c(N)c(-c2nc3ccccc3[nH]2)sc1=S"
  Label: "true (1)"
- Compound: "CC(C)[C@H](N)C(=O)NCCNC(=O)[C@@H](N)C(C)C"
  Label: "true (1)"
- Compound: "CC(C)C[P+](c1ccccc1)(c1ccccc1)c1ccccc1"
  Label: "false (0)"
- Compound: "C1=C(C2=CCCc3ccccc32)c2ccccc2CC1"
  Label: "false (0)"

* * *

# Assay method text: NCI Yeast Anticancer Drug Screen. Data for the rad50 strain (AID 155);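 note: 0% = growth of vehicle-only cultures of the same strain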
# Assay context: S. cerevisiae rad50 strain growth inhibition; at 50.0 µM; stronger effect = higher value
This is part of a sample that, as a whole, favours compounds with a hit. Of some 79,000 tested, about 15% had one in any assay.
# cutoff 90% applies to growth inhibition; >= gives criterion met, < gives criterion not met

- Molecule: "COC(=O)[C@]1(C)CCC[C@]2(C)c3ccc(C(C)C)cc3C(=O)C[C@@H]12"
  Label: "criterion met"
- Molecule: "CCCC(C)(O)C(C)CC (centres undefined)"
  Label: "criterion not met"
- Molecule: "c1ccc(-c2c3ccccc3cc3ccc4ccccc4c23)nc1"
  Label: "criterion not met"
- Molecule: "C[C@]12CC[C@H]3[C@@H](CCC4=CC(=O)CC[C@@]43C)[C@@H]1CC[C@@H]2C(=O)C=O"
  Label: "criterion not met"
- Molecule: "C(=N\\Nc1c2ccccc2nc2ccccc12)/c1ccc2c(c1)OCO2"
  Label: "criterion met"
- Molecule: "COC1=CC2=CCC3C(CCC4(C)C(C(C)=O)CCC34)C2(C)CC1 (centres undefined)"
  Label: "criterion not met"
- Molecule: "CN(C)c1ccc(/C=N/N=C(/C#N)[S][Sn]([S]/C(C#N)=N/N=C/c2ccc(N(C)C)cc2)([c]2ccccc2)[c]2ccccc2)cc1"
  Label: "criterion met"
- Molecule: "CCN(CC)CCOc1cccc2c1C(=O)c1c(O)cccc1C2=O"
  Label: "criterion not met"
- Molecule: "Nc1ccc(S(=O)(=O)Nc2cc(Cl)cc(Cl)c2)cc1"
  Label: "criterion met"
- Molecule: "CCCCCCCCCCCC(N)c1ccccc1 (centres undefined)"
  Label: "criterion met"
- Molecule: "C1CNC(CCNCCSCCNCCC2=NCCN2)=N1"
  Label: "criterion met"
- Molecule: "COc1cc2c(cc1O)CCN[C@@]21CS[C@H]2c3c(OC(C)=O)c(C)c4c(c3C(COC1=O)N1C2C2c3c(cc(C)c(OC)c3O)CC([C@@H]1O)N2C)OCO4 (some centres undefined)"
  Label: "criterion met"
- Molecule: "CC(=O)OCC1OC(OC2CCCc3c(O)c4c(c(O)c32)C(=O)c2ccccc2C4=O)C(OC(C)=O)C(OC(C)=O)C1OC(C)=O (centres undefined)"
  Label: "criterion met"
- Molecule: "O=C(C1=NNC(c2ccccc2)C1C(=O)c1ccccc1)c1ccccc1 (centres undefined)"
  Label: "criterion not met"
- Molecule: "COc1ccc(C2=C(Cl)C(=O)N(c3ccccc3C)C(=O)C2(Cl)Cl)cc1"
  Label: "criterion met"
- Molecule: "O=C(CNCc1ccccc1)c1ccc(Cl)cc1"
  Label: "criterion not met"
- Molecule: "COc1ccc2[nH]cc(C(=O)O)c2c1"
  Label: "criterion not met"
- Molecule: "CC(CCC(=O)O)[C@H]1CCC2[C@@H]3CC(O)[C@@H]4CC(O)CC[C@]4(C)C3CC[C@@]21C (some centres undefined)"
  Label: "criterion not met"
- Molecule: "CC(=O)OC1CCC2(C)C(=CCC3C2CCC2(C)C3CC(C(N)=O)C2C(C)=O)C1 (centres undefined)"
  Label: "criterion not met"
- Molecule: "OCC1(c2ccccc2)OC1c1ccccc1 (centres undefined)"
  Label: "criterion not met"
- Molecule: "C/C(=N\\NC(=S)NCCCNC(=S)N/N=C(\\C)c1ccccn1)c1ccccn1"
  Label: "criterion not met"
- Molecule: "O=C(Cc1csc2[n+]1C(=O)/C(=C/c1cccc([N+](=O)[O-])c1)S2)Nc1ccccc1"
  Label: "criterion not met"
- Molecule: "C/C(=N\\NC(=S)N1CCN(C2CCCCC2)CC1)c1ccccn1"
  Label: "criterion met"
- Molecule: "Cn1sc2ccccc2c1=S"
  Label: "criterion met"
- Molecule: "Cn1c2nc(-[n+]3ccccc3)nc-2c([O-])n(C)c1=O"
  Label: "criterion not met"
- Molecule: "CCCCCCCCCCCCCCCCCC1=NCCN1"
  Label: "criterion not met"
- Molecule: "Cc1cc(Br)ccc1NC(=O)/C=C/C(=O)O"
  Label: "criterion not met"
- Molecule: "O=[N+]([O-])c1ccc(CCCl)c(CCl)c1"
  Label: "criterion met"
- Molecule: "[N-]=[N+]=CC(=O)c1ccc(C(=O)C=[N+]=[N-])cc1"
  Label: "criterion met"
- Molecule: "C/C(=N/NC(=O)Nc1ccc(N=Nc2ccccc2)cc1)c1cccnc1"
  Label: "criterion not met"
- Molecule: "CCCCC(O)(c1ccccc1)C(O)(c1ccccc1)c1c(F)c(F)c(F)c(F)c1F (centres undefined)"
  Label: "criterion not met"
- Molecule: "Oc1ccc(C2CCc3ccccc32)cc1 (centres undefined)"
  Label: "criterion met"
- Molecule: "CCCCN(CCCC)CCNc1ccc(NS(=O)(=O)c2ccccc2)c2sc3ccccc3c(=O)c12"
  Label: "criterion met"
- Molecule: "CNC(=O)OCc1c(-c2ccccc2)c(-c2ccccc2)n(-c2ccc(OC)cc2)c1COC(=O)NC"
  Label: "criterion not met"
- Molecule: "O=S(=O)(c1ccc2c(c1)CCCN2)N1CCC[C@H]2CCCC[C@@H]21"
  Label: "criterion met"
- Molecule: "c1ccc2c(c1)Cc1nc3ccccc3nc1-2"
  Label: "criterion met"
- Molecule: "COc1cc(Cc2n[nH]c(=S)n2-c2ccccc2)c(S(=O)(=O)N2CCOCC2)cc1OC"
  Label: "criterion not met"
